B1: ALDH8A1 (parent)
chain: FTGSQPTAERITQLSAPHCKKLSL

Variants of: B1
Experiment: protein stability index of a GFP-peptide fusion (GPS, HEK-293T) (PSI 1-6); higher = more stable;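 further: lentivirally expressed fusions sorted by FACS into six bins by GFP to DsRed ratio, PSI derived from sequencing read proportions per bin multiplied by bin number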
Details: c terminus: a fixed tail appended
Measured protein stability index, listed per entry for reference.
// response body must contain only the number

These recorded examples may help you get a feel for the data.
C19G 2.58
F1V 3.82
G3Y 2.54

Consider the additional variant presented here.
Qu. Look up and report measured protein stability index for this entry: P17D
Ans. 2.8

Reference source: the supplement of paper PMC10567573
